Origin of measurements: ChEMBL document CHEMBL4138088

test system: CT26.WT; assay: Antiproliferative activity against mouse CT26.WT cells after 48 hrs by MTT assay; type: functional, cell-based
quantity measured: IC50 (µM)
Response body: numeric value in µM, unit text excluded.

Lab note: measured IC50 of `COc1ccccc1/C=C/C(=O)c1ccc(O)c(O)c1` was 3.36
